Read-out: Paternally Expressed 10 (PEG10), PEG10 (gene 23089)
protocol_details: LTEA_HepaRG_PEG10: Life Technologies and Expression Analysis (LTEA) Assay for Paternally Expressed 10 (PEG10) using HepaRG (AID 2283520);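 for AC50: differentiated HepaRG human liver cells in serum-free induction medium with 0.5% DMSO; PEG10 transcript by qRT-PCR normalised to ACTB GAPDH and POLR2A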
measurement_context: mRNA level, 48 h; actives raise or lower the signal
The source made the active and inactive calls. Rule for the calls: active = hit-call score of the fitted dose curve at least 0.9, where 1 is the maximum; inactive = score below 0.9.
observation_type: AC50

- CCCCC(C#N)(Cn1cncn1)c1ccc(Cl)cc1 (configuration not stated): inactive
- CCOP(=S)(OCC)Oc1nc(Cl)n(C(C)C)n1: inactive
- Clc1cccc(C(Cl)(Cl)Cl)n1: inactive
- COC(=O)N(C(=O)N1CO[C@@]2(C(=O)OC)Cc3cc(Cl)ccc3C2=N1)c1ccc(OC(F)(F)F)cc1: 20.5 µM (active)
- Nc1cnn(-c2ccccc2)c(=O)c1Cl: inactive
- O=C(Nc1ccccc1-c1ccc(Cl)cc1)c1cccnc1Cl: 21 µM (active)
- COP(=S)(OC)Oc1ccc([N+](=O)[O-])c(C)c1: inactive
- CCN(CC)c1nc(C)cc(OP(=S)(OC)OC)n1: inactive
- COc1cc(OC)nc(NC(=O)NS(=O)(=O)c2ncccc2OCC(F)(F)F)n1: inactive
- CC1(C)CON(Cc2ccccc2Cl)C1=O: 22.5 µM (active)

Prompt: Which AC50 value belongs to CC1(C)C(C=C(Cl)Cl)C1C(=O)OC(C#N)c1cccc(Oc2ccccc2)c1 (configuration not stated) ?
Completion: 50 µM (active)

Prompt: Further, for CC(C)Nc1nc(Cl)nc(NC(C)C)n1 ?
Completion: 27.2 µM (active)

###

Read-out: C-C motif chemokine 2 (Homo sapiens)
protocol_details: BSK_KF3CT_MCP1: BioMAP Diversity Plus: KF3CT Assay for Monocyte Chemoattractant Protein 1 (MCP1/CCL2) Biomarker Activity (AID 2283073)
measurement_context: primary human keratinocytes with fibroblasts; actives raise or lower the signal
Calls of active or inactive are those of the source. Rule for the calls: active = hit-call score of the fitted dose curve at least 0.9, where 1 is the maximum; inactive = score below 0.9.
observation_type: AC50

* CC(C)N1C(=O)c2ccccc2NS1(=O)=O | 0.535 µM (active)
* CCCCC(O)(Cn1cncn1)c1ccc(Cl)cc1Cl (centres undefined) | inactive
* Nc1c(Cl)c(F)nc(OCC(=O)O)c1Cl | inactive
* CNC(=O)N(C)c1nnc(C(C)(C)C)s1 | inactive
* Cc1nc(N(C)C)nc(OC(=O)N(C)C)c1C | inactive

Prompt: Which AC50 value belongs to CNC(=O)Oc1cccc2ccccc12 ?
Completion: inactive

Prompt: Further, for CS(=O)(=O)c1ccc(C(=O)C2C(=O)CCCC2=O)c([N+](=O)[O-])c1 ?
Completion: inactive

###

Read-out: Interferon-gamma inducible Protein 10 (IP10), CXCL10 (gene 3627)
protocol_details: BSK_KF3CT_IP10: BioMAP Diversity Plus: KF3CT Assay for Interferon-gamma inducible Protein 10 (IP10) Biomarker Activity (AID 2283068)
measurement_context: primary human keratinocytes with fibroblasts; actives raise or lower the signal
Active and inactive are the calls of the source. How the source made its calls: active means hit-call score of the fitted dose curve at least 0.9, where 1 is the maximum; inactive means score below 0.9.
Tick one outcome: active, inactive

* CCCCC(O)(Cn1cncn1)c1ccc(Cl)cc1Cl (configuration not stated) | inactive

Prompt: Hi, sorry to bother you, what did the test record for CCSC(=O)N1CCCCCC1 ?
Completion: inactive

Prompt: Further, for CN=C=S ?
Completion: inactive

Prompt: Further, for CC1(C)CON(Cc2ccccc2Cl)C1=O ?
Completion: inactive

Prompt: Further, for O=C1C2CC=CCC2C(=O)N1SC(Cl)(Cl)Cl (configuration not stated) ?
Completion: active

###

protocol_details: ATG_Oct_MLP_CIS: Attagene CIS-FACTORIAL HepG2 Assay for human Octamer-Binding Transcription Factor (Oct) (AID 2282993)
measurement_context: HepG2 Attagene cis-factorial Oct reporter, mRNA; actives raise or lower the signal
Description: ATG_CIS is a cell-based, multiplexed-readout assay that uses HepG2, a human liver cell line, with measurements taken at 24 hours after chemical dosing in a 24-well plate.ATG_Oct_MLP_CIS is one of 52 assay component(s) measured or calculated from the ATG_CIS assay. […] This assay endpoint, ATG_Oct_MLP_CIS, was analyzed with bidirectional fitting relative to DMSO as the negative control and baseline of activity. […]
Activity calls are given as the source filed them. Rule for the calls: active = hit-call score of the fitted dose curve at least 0.9, where 1 is the maximum; inactive = score below 0.9.
Tick one outcome: active, inactive

Example entries and their recorded answers appear below.
- CS(=O)(=O)c1ccc(C(=O)C2C(=O)CCCC2=O)c([N+](=O)[O-])c1: inactive
- Nc1c(Cl)c(F)nc(OCC(=O)O)c1Cl: inactive
- O=C(O)c1c(Cl)ccc2cc(Cl)cnc12: inactive
- COP(=O)(OC)O/C(C)=C/C(=O)N(C)C: inactive
- CCCCC(O)(Cn1cncn1)c1ccc(Cl)cc1Cl (stereo not drawn): active

Prompt: Hi, sorry to bother you, what did the test record for CCN(CC)C(=O)C(C)Oc1cccc2ccccc12 (stereo not drawn) ?
Completion: active

Prompt: Further, for Cc1ccc(N=CN(C)C=Nc2ccc(C)cc2C)c(C)c1 ?
Completion: inactive

Prompt: Further, for COc1ccc(-c2ccccc2)cc1NNC(=O)OC(C)C ?
Completion: active

Prompt: Further, for CCOC(=O)C(C)OC(=O)c1cc(Oc2ccc(C(F)(F)F)cc2Cl)ccc1[N+](=O)[O-] (stereo not drawn) ?
Completion: inactive

Prompt: Further, for CC1(C)C(C=C(Cl)Cl)C1C(=O)OC(C#N)c1cccc(Oc2ccccc2)c1 (stereo not drawn) ?
Completion: inactive

Prompt: Further, for CS(=O)(=O)c1cc(C(F)(F)F)ccc1C(=O)c1cnoc1C1CC1 ?
Completion: active

Prompt: Further, for CO/N=C(/C1=NOCCO1)c1ccccc1Oc1ncnc(Oc2ccccc2Cl)c1F ?
Completion: active

Prompt: Further, for CC(C)NC(=O)N1CC(=O)N(c2cc(Cl)cc(Cl)c2)C1=O ?
Completion: inactive

###

protocol_details: ATG_Sox_CIS: Attagene CIS-FACTORIAL HepG2 Assay for human SRY-box transcription factor (SOX) (AID 2282960)
measurement_context: HepG2 Attagene cis-factorial SOX reporter, mRNA; actives raise or lower the signal
Active and inactive are the calls of the source. How the source made its calls: active means hit-call score of the fitted dose curve at least 0.9, where 1 is the maximum; inactive means score below 0.9.
Tick one outcome: true (1) for active, false (0) for inactive

Example entries and their recorded answers appear below.
* N#Cc1c[nH]cc1-c1cccc2c1OC(F)(F)O2 | true (1)
* COCC(=O)N(c1c(C)cccc1C)C(C)C(=O)OC (configuration not stated) | false (0)
* CCOP(=O)(OCC)Oc1nc(Cl)c(Cl)cc1Cl | false (0)

Prompt: Hi, sorry to bother you, what did the test record for CO/N=C(/C1=NOCCO1)c1ccccc1Oc1ncnc(Oc2ccccc2Cl)c1F ?
Completion: false (0)

Prompt: Further, for CC1(C)CON(Cc2ccccc2Cl)C1=O ?
Completion: false (0)

Prompt: Further, for Cc1cc(C)nc(Nc2ccccc2)n1 ?
Completion: false (0)

Prompt: Further, for CCOc1nc(F)cc2nc(S(=O)(=O)Nc3c(Cl)cccc3Cl)nn12 ?
Completion: false (0)

###

Read-out: Macrophage colony-stimulating factor (MCSF), CSF1 (gene 1435)
protocol_details: BSK_hDFCGF_MCSF: BioMAP Diversity Plus: hDFCGF Assay for Macrophage colony-stimulating factor (MCSF) Biomarker Activity (AID 2283060)
measurement_context: primary human foreskin fibroblasts; actives raise or lower the signal
The source made the active and inactive calls. The calls were made as follows: active = hit-call score of the fitted dose curve at least 0.9, where 1 is the maximum; inactive = score below 0.9.
Tick one outcome: t = active, f = inactive

Example entries and their recorded answers appear below.
- COC(=O)c1c(C(F)F)nc(C(F)(F)F)c(C2=NCCS2)c1CC(C)C: f
- COc1cc(OC)nc(NC(=O)NS(=O)(=O)c2ncccc2OCC(F)(F)F)n1: f
- Cn1c(-c2ccccc2)cc(-c2ccccc2)[n+]1C: t

Prompt: Hi, sorry to bother you, what did the test record for CCOP(=O)(OCC)Oc1nc(Cl)c(Cl)cc1Cl ?
Completion: t

Prompt: Further, for CS(=O)(=O)c1ccc(C(=O)C2C(=O)CCCC2=O)c([N+](=O)[O-])c1 ?
Completion: f

Prompt: Further, for CC1(C)CCC(=Cc2ccc(Cl)cc2)C1(O)Cn1cncn1 (stereo unspecified) ?
Completion: f

Prompt: Further, for CC(C)N1C(=O)c2ccccc2NS1(=O)=O ?
Completion: f

Prompt: Further, for CCOc1cc(C(C)(C)C)ccc1C1COC(c2c(F)cccc2F)=N1 (stereo unspecified) ?
Completion: t

###

protocol_details: BSK_CASM3C_SRB: Viability Assessment in the BioMAP Diversity Plus: CASM3C Assay (AID 2283050);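 note: total protein by SRB staining as cytotoxicity measure in parallel cultures; cells exposed to compound for 24 h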
measurement_context: primary human coronary artery smooth muscle cells
Active and inactive are the calls of the source. How the source made its calls: active means hit-call score of the fitted dose curve at least 0.9, where 1 is the maximum; inactive means score below 0.9.
Tick one outcome: active, inactive

Example entries and their recorded answers appear below.
* COc1cc(Cl)c(OC)cc1Cl | inactive
* CCOP(=S)(OCC)Oc1nc(Cl)n(C(C)C)n1 | inactive
* CCNP(=S)(OC)O/C(C)=C/C(=O)OC(C)C (configuration not stated) | inactive
* COC(=O)N(C(=O)N1CO[C@@]2(C(=O)OC)Cc3cc(Cl)ccc3C2=N1)c1ccc(OC(F)(F)F)cc1 | inactive
* CCOc1nc(F)cc2nc(S(=O)(=O)Nc3c(Cl)cccc3Cl)nn12 | inactive

Prompt: Hi, sorry to bother you, what did the test record for Cc1ccc(N=CN(C)C=Nc2ccc(C)cc2C)c(C)c1 ?
Completion: active

Prompt: Further, for CCN(CC)c1nc(C)cc(OP(=S)(OC)OC)n1 ?
Completion: inactive

Prompt: Further, for CNC(=O)Oc1cccc2ccccc12 ?
Completion: inactive
